- Subject Of Test: T1, recombinant human PAD4 (human, UniProt Q9UM07 1-663)
- T1 construct: also called rhPAD4; hPAD4
- Method Description: SPR 37 C, captured antibody, PAD4 analyte, 2 mM EDTA
Attribute Measured: kon (M⁻¹ s⁻¹)
Expressed in M⁻¹ s⁻¹, but write only the number.

Here's what some known entries look like.
Binder	Units	kon
hz20-5 (antibody, V domains shown, light constant region not tied to this antibody) VH: QVQLVQSGAEVKKPGASVKVSCKASGYTFTNYGISWVRQRPGQGLEWIGEIYPRSGNTYHNEKFKDRVTMTADTSTSTVYMELSSLRSEDTAVYYCARSMITTRYWYFDVWGKGTTVTVSS VL: DIVMTQSPDSLAVSLGERATINCRASESVDTYGNSFMHWYQQKPGQPPKLLIYLASNLESGVPDRFSGSGSGTDFTLTISSLQAEDVAVYYCQQNNEDPLTFGAGTKLELK	M⁻¹ s⁻¹	240000
hz20-13 (antibody, V domains shown, light constant region not tied to this antibody) VH: QVQLVQSGAEVKKPGASVKVSCKASGYTFTNYGISWVRQRPGQGLEWMGEIYPRSGNTYHNEKFKDRVTMTTDKSTSTAYMELRSLRSEDTAVYYCARSMITTRYWYFDVWGKGTTVTVSS VL: DIVMTQSPDSLAVSLGERATINCRASESVDTYGNSFMHWYQQKPGQPPKLLIYLASNLESGVPDRFSGSGSGTDFTLTISSLQAEDVAVYYCQQNNEDPLTFGQGTKLEIK	M⁻¹ s⁻¹	440000
hz20-3 (antibody, V domains shown, light constant region not tied to this antibody) VH: EVQLVQSGAEVKKPGASVKVSCKASGYTFTNYGISWVRQAPGQGLEWMGEIYPRSGNTYHNEKFKDRVTMTADKSTSTAYMELRSLRSDDTAVYFCARSMITTRYWYFDVWGQGTLVTVSS VL: DIQMTQSPSSLSASVGDRVTITCRASESVDTYGNSFMHWYQQKPGKAPKLLIYLASNLESGVPSRFSGSGSGTDFTLTISSLQPEDFATYYCQQNNEDPLTFGQGTKVEIK	M⁻¹ s⁻¹	340000
hz20-11 (antibody, V domains shown, light constant region not tied to this antibody) VH: QVQLVQSGAEVAKPGASVKVSCKASGYTFTNYGISWVRQRPGQGLEWMGEIYPRSGNTYHNEKFKDRVTMTTDTSTSTAYMELRSLRSEDTAVYYCARSMITTRYWYFDVWGKGTTVTVSS VL: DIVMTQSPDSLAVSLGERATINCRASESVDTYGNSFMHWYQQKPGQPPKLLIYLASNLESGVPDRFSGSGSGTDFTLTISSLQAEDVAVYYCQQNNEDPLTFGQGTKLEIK	M⁻¹ s⁻¹	390000
hz13-3 (antibody, V domains shown, light constant region not tied to this antibody) VH: EVQLVQSGAEVKKPGASVKVSCTSSDFNIKDHFIHWVRQAPGKGLEWMGRIDPEDDETKYAPKFQDRVTMTADTSTDTAYMELSSLRSEDTAVYYCAGYGNYEGAMDYWGQGTLVTVSS VL: DIVMTQSPSSLSASVGDRVTLTCRASENVNNYGIGFMNWFQQKPGKAPKLLIYAASRRGSGVPSRFSGSGSGTDFTLTISSMQPEDFATYFCQQSKEVPYTFGQGTKLEIK	M⁻¹ s⁻¹	1.9e+06

Request: Can you look up the measured kon of hz13-5 D31E (antibody, V domains shown, IgG1.3f; also called clone 13-based hz13-5 D31E) VH: EVLLVQSGAEVKKPGASVKLSCTSSDFNIKEHFIHWVRQAPGKGLEWMGRIDPEDDETKYAPKFQDRVTMTADTSTDTAYMELSSLRSEDTAVFYCAGYGNYEGAMDYWGQGTLVTVSS VL: DIQMTQSPSSLSASVGDRVTITCRASENVNNYGIGFMNWFQQKPGKAPKLLIYAASRRGSGVPSRFSGSGSGTDFTLTISSLQPEDFATYFCQQSKEVPYTFGQGTKVEIKR for me?
Response: 1.17e+06

Data provenance: patent US20240132622A1
